- Assay procedure: PK of compound of Formula (Ia) after single subcutaneous dose of solution formulations in Wistar Han rats
- Format: in vivo
- Condition parameters: male, Wistar Han, rat, plasma, sc, 50 mg/kg, 504 h; individual rats; SC 50 mg/kg; solution R, 400 mg/mL
Attribute measured: concentration at 504 h

Query block: Specify concentration at 504 h for "CC(C)(C#Cc1ccc(-c2ccc(Cl)c3c(NS(C)(=O)=O)nn(CC(F)(F)F)c23)c([C@H](Cc2cc(F)cc(F)c2)NC(=O)Cn2nc(C(F)(F)F)c3c2C(F)(F)[C@@H]2C[C@H]32)n1)S(C)(=O)=O" and stop.
Result block: 348 nM
